protocol: Pharmacokinetics of memantine after oral or buccal dosing in male beagle dogs (Example 2)
Assay type: in vivo, beagle dog
measurement conditions: male, beagle, dog, plasma, po, 0.4 mg/kg, MMT 0.4 mg/kg Oral + 15 mg/kg NH4Cl
observation type: AUC(0-t)

INSERT INTO measurements (compound, value) VALUES
  ('CC12CC3CC(C)(C1)CC(N)(C3)C2 [Memantine]', '233 ng·h/mL');

====

protocol: Pharmacokinetics of memantine after oral or buccal dosing in male beagle dogs (Example 2)
Assay type: in vivo, beagle dog
measurement conditions: male, beagle, dog, plasma, 0.4 mg/kg, MMT 0.4 mg/kg Buccal + 3.3 mg/ml NaOH
observation type: AUC(0-t) (ng·h/mL)

INSERT INTO assay_data (compound, value) VALUES
  ('CC12CC3CC(C)(C1)CC(N)(C3)C2 [Memantine]', 108);
